// provenance: patent EP1077967B1

- targetOrSystem: Human recombinant PTP1B (Homo sapiens, UniProt P18031)
- Construct: made in house
- Sequence (P18031 whole entry): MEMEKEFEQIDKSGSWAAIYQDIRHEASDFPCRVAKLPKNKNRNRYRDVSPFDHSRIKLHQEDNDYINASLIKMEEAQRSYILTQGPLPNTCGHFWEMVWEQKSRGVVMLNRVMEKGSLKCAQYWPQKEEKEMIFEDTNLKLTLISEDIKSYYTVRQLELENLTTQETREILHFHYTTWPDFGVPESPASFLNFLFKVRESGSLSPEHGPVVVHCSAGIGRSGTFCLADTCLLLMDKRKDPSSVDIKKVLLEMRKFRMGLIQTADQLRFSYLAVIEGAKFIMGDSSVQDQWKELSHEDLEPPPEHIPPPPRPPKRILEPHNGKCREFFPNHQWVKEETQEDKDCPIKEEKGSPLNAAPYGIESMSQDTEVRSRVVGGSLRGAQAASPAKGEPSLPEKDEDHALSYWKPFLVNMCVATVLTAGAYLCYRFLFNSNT
- testName: Inhibition of tri-phosphorylated insulin receptor dodecaphosphopeptide dephosphorylation by hPTP1B (malachite green)
- Format: biochemical
- conditionLabel: recombinant PTP1B, dodecaphosphopeptide substrate
recordedMetric: IC50 (nM)

Reference set (5 entries):
O=C(O)[C@H](CCc1ccccc1)Oc1ccc(-c2ccc(-c3c(Cc4ccccc4)oc4ccccc34)cc2)cc1
225
O=C(O)[C@H](CCc1ccccc1)Oc1c(Br)cc(-c2ccc(-c3c(Cc4ccccc4)sc4ccccc34)cc2)cc1Br
290
O=C(O)[C@H](Cc1ccccc1)Oc1ccc(-c2ccc(-c3c(Cc4ccccc4)oc4ccccc34)cc2)cc1Br
56
CCCCC(Oc1c(Br)cc(-c2ccc(-c3c(Cc4ccccc4)oc4ccccc34)cc2)cc1Br)C(=O)O (stereo not shown)
52
O=C(O)[C@@H](Cc1ccccc1)Oc1ccc(-c2ccc(-c3c(C(O)c4ccccc4)oc4ccccc34)cc2)cc1 (stereo partly shown)
118

1: COc1ccc(Cc2sc3ccccc3c2-c2ccc(-c3ccc(O[C@H](Cc4ccccc4)C(=O)O)cc3)cc2)c(OC)c1
2: O=C(O)C(Cc1ccccc1)Oc1ccc(-c2ccc(-c3c(Cc4ccccc4)sc4ccccc34)cc2)cc1-c1ccc(Cl)cc1 (stereo not shown)
Challenge: When their IC50 values are compared, which is larger, 1 or 2 ? Lab log: write the label of the selected item as the result.
Response given: 1
